Values compiled from ChEMBL document CHEMBL1201862.

system: OVCAR-5; assay: NCI tumour cell line growth inhibition, 48 h
Active and inactive are the calls of the source. No stated cut-off is given here; in the data, active = GI50 up to about 1.1 µM and inactive = higher.
assay_endpoint: GI50

Study these solved cases before continuing.
Cc1c(C(=O)N2CCN(c3ccc([N+](=O)[O-])cc3)CC2)[n+]([O-])c2cc(Cl)c(Cl)cc2[n+]1[O-]: 21.6 µM (inactive)
C[N+](C)(C)Cc1c(CC#N)[nH]c2ccccc12: > 100 µM (inactive)
COc1cc(C2SCC(=O)N2c2ccccc2Cl)cc(OC)c1OC (centres undefined): > 100 µM (inactive)

Below: the item to evaluate.
Considering CC(=O)NC1C(O)C(O)C(CO)OC1n1nc(SCc2ccccc2)c(=O)[nH]c1=O (centres undefined) , its GI50 with OVCAR-5 was recorded as > 100 µM (inactive)
